Below, each entry is listed alongside its reported mortality at 400 ppm.
test system: southern armyworm (Spodopetra eridania Cramer); assay: Mite/insect screen, sprayed squash leaves (SAW); assay type: in vivo; settings: Spodoptera eridania, percent mortality; spray rate 400 ppm; read-out: SAW RESULTS %

{"columns": ["Structure as smiles", "mortality at 400 ppm / %"],
 "data": [
  ["Fc1cccc2c(OCCc3cccc4ccccc34)ncnc12", 0],
  ["CC(C)(C)c1ccc(CCCCOc2ncnc3ccccc23)cc1", 0],
  ["CC(C)c1ccc(CCCc2ncnc3ccccc23)cc1", 0],
  ["Fc1cccc2c(NCCc3ccc4ccccc4c3)ncnc12", 30],
  ["Fc1cccc2c(OCCc3ccc4ccccc4c3)ncnc12", 0],
  ["Clc1ccc2ncnc(NCCc3ccc(-c4ccccc4)cc3)c2c1", 100],
  ["FC(F)(F)c1cccc(CCOc2ncnc3ccccc23)c1", 0],
  ["Fc1cccc2c(OCCc3cccc(C(F)(F)F)c3)ncnc12", 0],
  ["Fc1cccc2c(OCCc3cccc(Oc4ccccc4)c3)ncnc12", 40],
  ["Clc1ccc(CCNc2ncnc3ccc(Br)cc23)cc1", 0]
]}

###

test system: melon aphids (Aphis gossypii Glover); assay: Mite/insect screen, sprayed squash cotyledons (MA); format: in vivo; conditions: percent mortality; spray rate 200 ppm
Below, each entry is listed alongside its reported MA RESULTS %.

{"columns": ["Compound", "System name", "MA RESULTS %"],
 "data": [
  ["Fc1cccc2c(NCC(c3ccccc3)c3ccccc3)ncnc12 [Example 61]", "melon aphids (Aphis gossypii Glover)", "0%"],
  ["Clc1ccc2ncnc(NCCc3ccccc3Oc3ccccc3)c2c1 [Example 57]", "melon aphids (Aphis gossypii Glover)", "0%"],
  ["c1ccc2cc(CCNc3ncnc4ccccc34)ccc2c1 [Example 53]", "melon aphids (Aphis gossypii Glover)", "0%"],
  ["Fc1cccc2c(OCCc3ccc(-c4ccccc4)cc3)ncnc12 [Example 93]", "melon aphids (Aphis gossypii Glover)", "80%"]
]}

###

tested on: Twospotted spider mites (Tetranychus urticae Koch); experiment: Mite/insect screen, sprayed squash cotyledons (SM); assay type: in vivo; details: Tetranychus urticae, percent mortality; spray rate 400 ppm; read-out: SM RESULTS %
Observation type: mortality at 400 ppm (%)

{"columns": ["Compound", "Recorded measurement"],
 "data": [
  ["CC(C)(C)c1ccc(CCCOc2ncnc3c(F)cccc23)cc1 [Example 149]", 0],
  ["Fc1cccc2c(OCCc3ccccc3C(F)(F)F)ncnc12 [Example 56]", 0],
  ["CC(COc1ncnc2ccccc12)c1cccc(Oc2ccccc2)c1 (stereo not shown) [Example 182]", 80],
  ["Fc1cccc2c(NCCc3ccc(Cl)cc3)ncnc12 [Example 78]", 0],
  ["CCOc1ccc(CCOc2ncnc3c(F)cccc23)cc1 [Example 170]", 100],
  ["FC(F)(F)c1ccccc1CCOc1ncnc2ccccc12 [Example 47]", 0],
  ["CCOc1ccc(CCCOc2ncnc3c(F)cccc23)cc1 [Example 125]", 0],
  ["CC(C)c1ccc(CCCOc2ncnc3c(F)cccc23)cc1 [Example 152]", 60],
  ["N#Cc1ccc(CCOc2ncnc3ccccc23)cc1 [Example 183]", 0],
  ["Fc1cccc2c(OCCc3ccc(Cl)cc3)ncnc12 [Example 55]", 0]
]}

###

tested on: southern armyworm (Spodopetra eridania Cramer); test: Mite/insect screen, sprayed squash leaves (SAW); format: in vivo; details: Spodoptera eridania, percent mortality; spray rate 400 ppm; read-out: SAW RESULTS %
Below, each entry is listed alongside its reported mortality at 400 ppm.
Observation type: mortality at 400 ppm

{"columns": ["Compound", "Observation type", "Recorded measurement"],
 "data": [
  ["CCOc1ccc(CCOc2ncnc3ccccc23)cc1 [Example 15, 4-[2-(4-ethoxyphenyl)ethoxy]quinazoline]", "mortality at 400 ppm", "0%"],
  ["c1ccc(CCCc2ncnc3ccccc23)cc1", "mortality at 400 ppm", "0%"],
  ["CC(C)(C)c1ccc(CCOc2ncnc3c(F)cccc23)cc1", "mortality at 400 ppm", "100%"],
  ["c1ccc(CCOc2ncnc3ccccc23)cc1", "mortality at 400 ppm", "0%"],
  ["COc1cc(CCOc2ncnc3ccccc23)ccc1O", "mortality at 400 ppm", "0%"],
  ["CC(Cc1ccccc1)Oc1ncnc2ccccc12 (stereo not drawn)", "mortality at 400 ppm", "0%"],
  ["Cc1cccc2c(OCCc3ccc(C(C)(C)C)cc3)ncnc12", "mortality at 400 ppm", "0%"],
  ["CCOc1ccc(CCCOc2ncnc3c(F)cccc23)cc1", "mortality at 400 ppm", "0%"],
  ["CCC(COc1ncnc2ccccc12)c1ccc(-c2ccccc2)cc1 (stereo not drawn)", "mortality at 400 ppm", "0%"],
  ["c1ccc(-c2cccc(CCOc3ncnc4ccccc34)c2)cc1", "mortality at 400 ppm", "0%"],
  ["Clc1ccc(CCCc2ncnc3ccccc23)cc1 [Example 117, 4-[3-(4-chlorophenyl)propyl]quinazoline]", "mortality at 400 ppm", "0%"],
  ["COc1ccccc1CCOc1ncnc2c(F)cccc12", "mortality at 400 ppm", "0%"],
  ["FC(F)(F)c1cc(CCOc2ncnc3ccccc23)cc(C(F)(F)F)c1", "mortality at 400 ppm", "0%"],
  ["CC(C)c1ccc(CCCOc2ncnc3ccccc23)cc1", "mortality at 400 ppm", "0%"],
  ["Fc1cccc2c(OCCc3ccccc3)ncnc12", "mortality at 400 ppm", "0%"],
  ["CC(CNc1ncnc2c(F)cccc12)c1ccc(Cl)cc1 (stereo not drawn)", "mortality at 400 ppm", "0%"],
  ["CC(C)c1ccc(CCNc2ncnc3ccc(Br)cc23)cc1", "mortality at 400 ppm", "0%"],
  ["CC(C)c1cccc(C(C)C)c1OCCOc1ncnc2ccccc12", "mortality at 400 ppm", "0%"],
  ["CC(COc1ncnc2ccccc12)c1ccccc1 (stereo not drawn)", "mortality at 400 ppm", "0%"],
  ["Fc1cccc2c(OCCC3CCCCC3)ncnc12", "mortality at 400 ppm", "0%"],
  ["FC(F)(F)c1cccc(C(F)(F)F)c1CCOc1ncnc2ccccc12", "mortality at 400 ppm", "0%"],
  ["Cc1cccc2ncnc(NCCc3ccc(Cl)cc3)c12", "mortality at 400 ppm", "0%"],
  ["CC(C)C(COc1ncnc2ccccc12)c1ccccc1 (stereo not drawn)", "mortality at 400 ppm", "0%"],
  ["FC(F)(F)c1cccc(CCCOc2ncnc3ccccc23)c1", "mortality at 400 ppm", "0%"],
  ["Cc1ccc(CCOc2ncnc3c(F)cccc23)cc1", "mortality at 400 ppm", "0%"],
  ["c1ccc(Oc2cccc(CCNc3ncnc4ccccc34)c2)cc1", "mortality at 400 ppm", "40%"],
  ["Brc1ccc(CCOc2ncnc3ccccc23)cc1 [Example 22, 4-[2-(4-bromophenyl)ethoxy]quinazoline]", "mortality at 400 ppm", "0%"],
  ["Clc1ccc(CCOc2ncnc3ccccc23)cc1 [Example 5, 4-[2-(4-chlorophenyl)ethoxy]quinazoline]", "mortality at 400 ppm", "0%"],
  ["c1ccc(CCCCOc2ncnc3ccccc23)cc1", "mortality at 400 ppm", "50%"],
  ["Fc1cccc2c(NCC(c3ccccc3)c3ccccc3)ncnc12", "mortality at 400 ppm", "0%"],
  ["CC(C)c1ccc(CCNc2ncnc3c(F)cccc23)cc1", "mortality at 400 ppm", "100%"],
  ["CC(COc1ncnc2ccccc12)c1ccc(-c2ccccc2)cc1 (stereo not drawn)", "mortality at 400 ppm", "0%"],
  ["c1ccc(Sc2cccc(CCOc3ncnc4ccccc34)c2)cc1", "mortality at 400 ppm", "0%"],
  ["Fc1cccc2c(OCCCc3ccc(Oc4ccccc4)cc3)ncnc12", "mortality at 400 ppm", "90%"],
  ["Fc1cccc2c(NCCc3ccc(Cl)cc3)ncnc12", "mortality at 400 ppm", "80%"],
  ["CC(C)Cc1ccc(C(C)COc2ncnc3ccccc23)cc1 (stereo not drawn)", "mortality at 400 ppm", "0%"]
]}

###

tested on: southern armyworm (Spodopetra eridania Cramer); assay: Mite/insect screen, sprayed squash leaves (SAW); format: in vivo; conditions: Spodoptera eridania, percent mortality; spray rate 400 ppm; read-out: SAW RESULTS %
Observation type: mortality at 400 ppm (%)

{"columns": ["Compound", "Units text", "Recorded measurement"],
 "data": [
  ["CCc1ccc(CCOc2ncnc3ccccc23)cc1 [Example 65, 4-[2-(4-ethylphenyl)ethoxy]quinazoline]", "%", 0],
  ["Clc1cccc(CCOc2ncnc3ccccc23)c1 [Example 41, 4-[2-(3-chlorophenyl)ethoxy]quinazoline]", "%", 0],
  ["Fc1ccc(-c2ccc(CCOc3ncnc4ccccc34)cc2)cc1", "%", 0],
  ["CC(C)c1ccc(CCOc2ncnc3ccccc23)cc1", "%", 100],
  ["CC(=O)N(CCc1ccc(-c2ccccc2)cc1)c1ncnc2ccccc12", "%", 0]
]}

###

Below, each entry is listed alongside its reported mortality at 400 ppm.
tested on: Twospotted spider mites (Tetranychus urticae Koch); assay: Mite/insect screen, sprayed squash cotyledons (SM); format: in vivo; conditions: Tetranychus urticae, percent mortality; spray rate 400 ppm; read-out: SM RESULTS %

{"columns": ["Compound", "mortality at 400 ppm, %"],
 "data": [
  ["C=CC(CCc1ccccc1)Oc1ncnc2ccccc12 (stereo not shown)", 0],
  ["c1ccc(Oc2ccc(CCCOc3ncnc4ccccc34)cc2)cc1", 0],
  ["Fc1cccc2c(OCCc3ccc(Oc4ccccc4)cc3)ncnc12", 0],
  ["CC(C)c1ccc(CCNc2ncnc3ccc(Br)cc23)cc1", 0],
  ["Clc1ccc(CCNc2ncnc3ccc(Br)cc23)cc1", 0],
  ["CC(C)c1ccc(CCNc2ncnc3cc(Cl)ccc23)cc1", 90],
  ["Cc1cccc2ncnc(NCCc3ccc(Cl)cc3)c12", 0],
  ["Clc1ccc2c(NCCc3cccc(Oc4ccccc4)c3)ncnc2c1", 40],
  ["Clc1ccc2ncnc(NCCc3ccc(-c4ccccc4)cc3)c2c1", 0],
  ["Fc1cccc2c(NCCc3ccc(Oc4ccccc4)cc3)ncnc12", 100],
  ["c1ccc(-c2ccc(CCOc3ncnc4ccccc34)cc2)cc1", 100],
  ["FC(F)(F)c1cc(CCOc2ncnc3ccccc23)cc(C(F)(F)F)c1", 0],
  ["c1ccc(-c2ccc(CCNc3ncnc4ccccc34)cc2)cc1", 80],
  ["c1ccc2cc(CCNc3nc(NCCc4ccc5ccccc5c4)c4ccccc4n3)ccc2c1", 0],
  ["CC(C)(C)c1ccc(CCCc2ncnc3ccccc23)cc1", 100],
  ["Fc1cccc2c(OCCC3CCCCC3)ncnc12", 80],
  ["Fc1cccc2c(OCCc3cccc(Oc4ccccc4)c3)ncnc12", 20],
  ["c1ccc(Oc2ccc(CCNc3ncnc4ccccc34)cc2)cc1", 0],
  ["CC(C)(C)c1ccc(CCOc2ncnc3c(F)cccc23)cc1", 0],
  ["CCc1ccc(CCOc2ncnc3ccccc23)cc1 [Example 65, 4-[2-(4-ethylphenyl)ethoxy]quinazoline]", 100],
  ["COc1ccc(CCOc2ncnc3ccccc23)cc1 [Example 49, 4-[2-(4-methoxyphenyl)ethoxy]quinazoline]", 80],
  ["c1ccc(C(COc2ncnc3ccccc23)c2ccccc2)cc1", 60],
  ["Fc1cccc2c(OCCc3cccc4ccccc34)ncnc12", 0],
  ["Cc1ccc(CCNc2ncnc3c(F)cccc23)cc1", 0],
  ["FC(F)(F)c1cccc(C(F)(F)F)c1CCOc1ncnc2ccccc12", 0],
  ["c1ccc(CCCCOc2ncnc3ccccc23)cc1", 100],
  ["Fc1cccc2c(OCCc3ccc4ccccc4c3)ncnc12", 0],
  ["CC(C)c1ccccc1CCOc1ncnc2c(F)cccc12", 0],
  ["c1ccc2c(CCNc3ncnc4ccccc34)cccc2c1", 0],
  ["CC(C)(C)c1ccc(CCCOc2ncnc3ccccc23)cc1", 80],
  ["Oc1ccc(CCOc2ncnc3ccccc23)cc1 [Example 115, 4-[2-(4-hydroxyphenyl)ethoxy]quinazoline]", 0],
  ["Fc1ccccc1CCOc1ncnc2ccccc12 [Example 48, 4-[2-(2-fluorophenyl)ethoxy]quinazoline]", 90],
  ["c1ccc(CCOc2ncnc3ccccc23)cc1", 80],
  ["CCOc1ccc(CCCOc2ncnc3ccccc23)cc1 [Example 158, 4-[3-(4-ethoxyphenyl)propoxy]quinazoline]", 60],
  ["CC(C)Cc1ccc(C(C)COc2ncnc3c(F)cccc23)cc1 (stereo not shown)", 0],
  ["Brc1ccc(CCOc2ncnc3ccccc23)cc1 [Example 22, 4-[2-(4-bromophenyl)ethoxy]quinazoline]", 20],
  ["CC(=O)N(CCc1ccc2ccccc2c1)c1ncnc2ccccc12", 0]
]}
